Species on record: Rattus norvegicus
method-description: Open TG-GATES - Regimen: Daily Repeat
Type: toxicity, organism-based, Sprague-Dawley
Set-up: regimen Daily Repeat, gender Male, age 6 weeks
measurement-parameters: in vivo, po, 0 mg/kg, 72 h, tissue Blood, route gavage, dose level Control, time 3 day
Each item that follows carries a reported Hb.
Response body: numeric value in g/dL, unit text excluded.

Return reported Hb; argument: NC(=O)N1c2ccccc2C=Cc2ccccc21 [CARBAMAZEPINE]
13.6

Consider the compound shown here: CC(=O)Oc1ccccc1C(=O)O What is its recorded Hb?
13.1

Would you mind telling me what Hb value was observed for O=C(O)c1cn(C2CC2)c2cc(N3CCNCC3)c(F)cc2c1=O ?
13.2

Which Hb value belongs to Cn1c(=O)c2[nH]cnc2n(C)c1=O.O ?
13.2

***
Given the compound O=C(O)c1cc(/N=N/c2ccc(S(=O)(=O)Nc3ccccn3)cc2)ccc1O , what is its reported Hb?
13.3
